# subject.of.test: CaCyk3
# experimental.protocol: SPOT peptide array binding signal intensity (averaged, normalized) (arbitrary units (background-subtracted, floor 0; scale differs between SH3 domains)); higher = stronger binding of the SH3 domain to the peptide
Please use condition met whenever SPOT peptide array binding signal intensity is not below 50, and condition not met whenever it is.

Worked examples, 3 binders total:
**Q:** Exam item: decide whether the reported SPOT peptide array binding signal intensity for "AAHKTKPSIPPKKVE" is at least 50.
**A:** condition not met

**Q:** Exam item: decide whether the reported SPOT peptide array binding signal intensity for "IAPIPMPKPNPTHIS" is at least 50.
**A:** condition not met

**Q:** Exam item: decide whether the reported SPOT peptide array binding signal intensity for "DHPKGPPPPPPPDEK" is at least 50.
**A:** condition not met

Continuing:
**Q:** Exam item: decide whether the reported SPOT peptide array binding signal intensity for "NENKKLPPAPTVFGL" is at least 50.
**A:** condition not met

**Q:** Exam item: decide whether the reported SPOT peptide array binding signal intensity for "PALPSLPPPPLLNVD" is at least 50.
**A:** condition not met

**Q:** Exam item: decide whether the reported SPOT peptide array binding signal intensity for "STPQTMRQAPKRPDA" is at least 50.
**A:** condition not met

**Q:** Exam item: decide whether the reported SPOT peptide array binding signal intensity for "SKIRPTPRKPSRMAT" is at least 50.
**A:** condition met

**Q:** Exam item: decide whether the reported SPOT peptide array binding signal intensity for "YVRRRPRVRLEPLLS" is at least 50.
**A:** condition not met

**Q:** Exam item: decide whether the reported SPOT peptide array binding signal intensity for "NRARYLPQNPDIIAG" is at least 50.
**A:** condition not met

**Q:** Exam item: decide whether the reported SPOT peptide array binding signal intensity for "EVTPKVPERPSRRKT" is at least 50.
**A:** condition met

**Q:** Exam item: decide whether the reported SPOT peptide array binding signal intensity for "QFDLKMPSKPIHNLK" is at least 50.
**A:** condition not met

Numbers sourced from the supplement of paper PMC4466140.
